# Time values compiled below
Tested on: Rattus norvegicus
MEASUREMENT_DESCRIPTION: Analgesic activity in albino rat assessed as latency in reaction time required for thermal stimulus-induced tail flicking at 10 mg/kg, po after 60 mins
Format: functional
METRIC: Time (s)

INSERT INTO measurements (compound, test_value) VALUES
  ('CC(=O)N1N=C(c2ccc([N+](=O)[O-])cc2)CC1c1c(C)nn(-c2ccccc2)c1Cl (stereo not given)', 4.767),
  ('CC(C)=CCN1CC[C@]2(C)c3cc(O)ccc3C[C@H]1[C@H]2C [(+)-PENTAZOCINE]', 5.6),
  ('CC(=O)N1N=C(c2ccc(C)cc2)CC1c1c(C)nn(-c2ccccc2)c1Cl (stereo not given)', 4.567),
  ('CCC(=O)N1N=C(c2ccc(Br)cc2)CC1c1c(C)nn(-c2ccccc2)c1Cl (stereo not given)', 4.167),
  ('CCC(=O)N1N=C(c2cccc([N+](=O)[O-])c2)CC1c1c(C)nn(-c2ccccc2)c1Cl (stereo not given)', 3.067);

---

Test system: Rattus norvegicus
MEASUREMENT_DESCRIPTION: Analgesic activity in albino rat assessed as latency in reaction time required for thermal stimulus-induced tail flicking at 10 mg/kg, po after 60 mins
Type: functional
# Time values compiled below
METRIC: Time (s)

INSERT INTO measurements (compound, tgt, metric, test_value) VALUES
  ('CC(=O)N1N=C(c2ccc(Br)cc2)CC1c1c(C)nn(-c2ccccc2)c1Cl (stereo not drawn)', 'Rattus norvegicus', 'Time', 4.733),
  ('CC(=O)N1N=C(c2cccc([N+](=O)[O-])c2)CC1c1c(C)nn(-c2ccccc2)c1Cl (stereo not drawn)', 'Rattus norvegicus', 'Time', 4.733),
  ('COc1ccc(C2=NN(C(C)=O)C(c3c(C)nn(-c4ccccc4)c3Cl)C2)cc1 (stereo not drawn)', 'Rattus norvegicus', 'Time', 3.7),
  ('CCC(=O)N1N=C(c2ccc(OC)cc2)CC1c1c(C)nn(-c2ccccc2)c1Cl (stereo not drawn)', 'Rattus norvegicus', 'Time', 4.633),
  ('CCC(=O)N1N=C(c2ccccc2)CC1c1c(C)nn(-c2ccccc2)c1Cl (stereo not drawn)', 'Rattus norvegicus', 'Time', 2.7),
  ('CC(=O)N1N=C(c2ccc(Cl)cc2)CC1c1c(C)nn(-c2ccccc2)c1Cl (stereo not drawn)', 'Rattus norvegicus', 'Time', 3.067),
  ('CCC(=O)N1N=C(c2ccc(C)cc2)CC1c1c(C)nn(-c2ccccc2)c1Cl (stereo not drawn)', 'Rattus norvegicus', 'Time', 3.733),
  ('CCC(=O)N1N=C(c2ccc([N+](=O)[O-])cc2)CC1c1c(C)nn(-c2ccccc2)c1Cl (stereo not drawn)', 'Rattus norvegicus', 'Time', 3.533);
